test: Toxicity in ip dosed CF1 mouse after 14 days of injection
Assay type: organism-based
measurement parameters: in vivo
Where a SMILES comes first, the peptide text is derived from it. The star is where a group is joined. NH(4-N(CH2CH2Cl)2-phenyl) = ClCCN(CCCl)c1ccc(N*)cc1; Cbz = O=C(OCc1ccccc1)*
Catalogue of LD50 at 336 h values
Write it as a number; the unit µmol/kg goes unstated.

Could you tell me which LD50 at 336 h is on file for `CC(C)C[C@H](NC(=O)[C@@H]1CCCN1C(=O)[C@H](N)Cc1ccccc1)C(=O)NCC(=O)N1CCC[C@H]1C(=O)NCC(=O)Nc1ccc(N(CCCl)CCCl)cc1.O=C(O)C(F)(F)F` ?
106

Could you tell me which LD50 at 336 h is on file for `NCC(=O)N1CCC[C@H]1C(=O)NCC(=O)Nc1ccc(N(CCCl)CCCl)cc1.O=C(O)C(F)(F)F` ?
19.7

Could you tell me which LD50 at 336 h is on file for `CC(C)C[C@H](NC(=O)[C@@H]1CCCN1C(=O)[C@@H](CCCCNC(=O)OC(C)(C)C)NC(=O)OC(C)(C)C)C(=O)NCC(=O)N1CCC[C@H]1C(=O)NCC(=O)Nc1ccc(N(CCCl)CCCl)cc1` ?
100

Could you tell me which LD50 at 336 h is on file for `CC(C)C[C@H](NC(=O)[C@@H]1CCCN1C(=O)[C@@H](Cc1ccccc1)NC(=O)OC(C)(C)C)C(=O)NCC(=O)N1CCC[C@H]1C(=O)NCC(=O)Nc1ccc(N(CCCl)CCCl)cc1` ?
105

Could you tell me which LD50 at 336 h is on file for CC(C)C[C@H](NC(=O)[C@@H]1CCCN1C(=O)OCc1ccccc1)C(=O)NCC(=O)N1CCC[C@H]1C(=O)NCC(=O)Nc1ccc(N(CCCl)CCCl)cc1 (Cbz-PLGPG-{NH(4-N(CH2CH2Cl)2-phenyl)}) ?
123

Could you tell me which LD50 at 336 h is on file for `CC(C)C[C@H](NC(=O)[C@@H]1CCCN1C(=O)[C@H](N)CCCCN)C(=O)NCC(=O)N1CCC[C@H]1C(=O)NCC(=O)Nc1ccc(N(CCCl)CCCl)cc1.O=C(O)C(F)(F)F` ?
78

Could you tell me which LD50 at 336 h is on file for CC(C)C[C@H](N)C(=O)NCC(=O)N1CCC[C@H]1C(=O)NCC(=O)Nc1ccc(N(CCCl)CCCl)cc1.O=C(O)C(F)(F)F (H-LGPG-{NH(4-N(CH2CH2Cl)2-phenyl)}) ?
10.4

Could you tell me which LD50 at 336 h is on file for `O=C(CNC(=O)[C@@H]1CCCN1C(=O)OCc1ccccc1)Nc1ccc(N(CCCl)CCCl)cc1` ?
119

Could you tell me which LD50 at 336 h is on file for `CC(C)C[C@H](NC(=O)[C@@H]1CCCN1C(=O)[C@@H](C)NC(=O)OC(C)(C)C)C(=O)NCC(=O)N1CCC[C@H]1C(=O)NCC(=O)Nc1ccc(N(CCCl)CCCl)cc1` ?
94.5
